- Tested on: MCF-7 human breast tumor cells
- PROCEDURE_DETAILS: Inhibition of growth of MCF-7 human breast tumor cells
- Format: cell-based
- SETUP_CONDITIONS: MCF7, MCF-7 cells, medium with 0.001 mg/ml insulin
READOUT_KIND: IC50 (µM)

| COMPOUND | TARGET_DESC | READOUT_KIND | UNIT_TAG | NUMERIC_READOUT |
| --- | --- | --- | --- | --- |
| CCCCN(C)C(=O)CCCCCCCNC(=O)Cc1c(C)n(C(=O)c2ccc(Cl)cc2)c2ccc(O)cc12 [MDL 101,906] | MCF-7 human breast tumor cells | IC50 | µM | 3.8 |

* * *

- TARGET_DESC: estrogen receptors (Homo sapiens, UniProt P03372)
- Construct: estrogen receptor extracted from MCF-7 human breast tumor cells; endogenous in cells; host or cells: MCF-7 human breast cancer cells (nuclear extract, cytosol or whole cell extract)
- PROCEDURE_DETAILS: Quantification of estrogen receptors in nuclear and whole cell extracts (ER-EIA monoclonal kit), Table 1
- Format: cell-based, human (MCF-7 human breast cancer cells)
- SETUP_CONDITIONS: estrogen receptors in nuclear extracts; second of two separate experiments (after the slash)
pIC50: −log10 of the molar value.

| STRUCTURE_SMILES | pIC50 |
| --- | --- |
| CCCCN(C)C(=O)CCCCCCCNC(=O)Cc1c(C)n(C(=O)c2ccc(Cl)cc2)c2ccc(O)cc12 | 5.07 |

* * *

- TARGET_DESC: estrogen receptors (Homo sapiens)
- Construct: estrogen receptor extracted from MCF-7 human breast tumor cells; endogenous in cells; host or cells: MCF-7 human breast cancer cells (nuclear extract, cytosol or whole cell extract)
- PROCEDURE_DETAILS: Quantification of estrogen receptors in nuclear and whole cell extracts (ER-EIA monoclonal kit), Table 1
- Type: cell-based, human (MCF-7 human breast cancer cells)
- SETUP_CONDITIONS: estrogen receptors in nuclear extracts

| STRUCTURE_SMILES | TARGET_DESC | IC50 (µM) |
| --- | --- | --- |
| CCCCN(C)C(=O)CCCCCNC(=O)Cc1c(C)n(C(=O)c2ccc(Cl)cc2)c2ccc(O)cc12 | estrogen receptors (Homo sapiens) | 19 |
| CCCCN(C)C(=O)CCCCCCCNC(=O)Cc1c(C)n(C(=O)c2ccc(Cl)cc2)c2ccc(O)cc12 | estrogen receptors (Homo sapiens) | 19 |
| CCCCN(C)C(=O)CCCCCCCNC(=O)Cc1c(-c2ccc(O)cc2)n(Cc2ccccc2)c2ccc(O)cc12 | estrogen receptors (Homo sapiens) | 18 |
| Cc1c(CC(=O)NCCCCCCC(=O)N(C)c2ccccc2)c2cc(O)ccc2n1C(=O)c1ccccc1 | estrogen receptors (Homo sapiens) | 27 |
| CCCCN(C)C(=O)CCCCCCCNC(=O)Cc1c(-c2ccc(F)cc2)n(Cc2ccccc2)c2ccc(O)cc12 | estrogen receptors (Homo sapiens) | 16 |

* * *

- TARGET_DESC: estrogen receptor binding to an estrogen response element (Homo sapiens, UniProt P03372)
- Construct: estrogen receptor extracted from MCF-7 human breast tumor cells; endogenous in cells; host or cells: MCF-7 human breast cancer cells (nuclear extract, cytosol or whole cell extract)
- Sequence (P03372 1-595): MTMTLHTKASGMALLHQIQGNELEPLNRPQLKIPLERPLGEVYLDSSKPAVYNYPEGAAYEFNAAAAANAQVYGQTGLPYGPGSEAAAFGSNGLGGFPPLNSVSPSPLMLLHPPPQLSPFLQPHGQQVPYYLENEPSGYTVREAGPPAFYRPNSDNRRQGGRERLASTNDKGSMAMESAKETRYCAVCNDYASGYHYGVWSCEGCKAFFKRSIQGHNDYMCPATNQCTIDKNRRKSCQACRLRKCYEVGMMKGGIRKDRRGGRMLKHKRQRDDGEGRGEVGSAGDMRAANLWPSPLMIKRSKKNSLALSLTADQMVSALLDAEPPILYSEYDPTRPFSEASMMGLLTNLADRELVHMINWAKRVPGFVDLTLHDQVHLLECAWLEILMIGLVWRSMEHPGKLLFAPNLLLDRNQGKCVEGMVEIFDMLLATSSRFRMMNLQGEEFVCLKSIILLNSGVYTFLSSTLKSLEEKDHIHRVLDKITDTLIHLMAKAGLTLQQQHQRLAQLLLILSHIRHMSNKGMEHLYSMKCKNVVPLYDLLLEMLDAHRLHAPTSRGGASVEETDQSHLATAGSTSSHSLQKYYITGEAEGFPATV
- PROCEDURE_DETAILS: Inhibition of estrogen receptor binding to an estrogen response element in DNA mobility shift assays
- Type: biochemical, human (nuclear extract of MCF-7 human breast cancer cells)

| STRUCTURE_SMILES | IC50, µM |
| --- | --- |
| CCCCN(C)C(=O)CCCCCCCNC(=O)Cc1c(C)n(C(=O)c2ccc(Cl)cc2)c2ccc(O)cc12 | 8.5 |
